These data points were gathered from patent US20150004189A1.

tested system: T1, HLA-DQ molecule DQB1*0501 (human, limits assumed)
T1 MHC II alpha: not shown
T1 MHC II beta: not shown
protocol description: inhibition of radiolabeled peptide binding to purified HLA-DQ

>  <binder>
ERSLWIIFSKNLNIK [Cha o 1 (86-100) peptide ERSLWIIFSKNLNIK]

>  <IC50>
729 nM

$$$$
